Provide the recorded EC50 for the entries that follow.
tested on: genotype 1b-Con1 subgenomic replicon cell line; test: HCV Polymerase Replicon Assay (genotype 1b-Con1, luciferase reporter); format: cell-based; details: Hepatitis C virus, 72 h, 1b-Con1 replicon, three days

COc1c(-c2ccc3c(c2)CC=C3CNS(C)(=O)=O)cc(-c2cn(C)c(=O)[nH]c2=O)cc1C(C)(C)C [compound 6] : ≤ 10 nM

Give one value of EC50 per listed compound.
1. COc1c(-c2ccc3cc(NS(C)(=O)=O)ccc3c2)cc(-c2c[nH]c(=O)[nH]c2=O)cc1-c1cccs1 [compound 39]
2. COc1c(-c2ccoc2)cc(-c2c[nH]c(=O)[nH]c2=O)cc1-c1ccc2cc(NS(C)(=O)=O)ccc2c1 [compound 38]

["≤ 10 nM", "10 to 100 nM"]

---

HCV polymerase 1A (Δ21 NS5B) (Hepatitis C virus genotype 1a): reported IC50 for various compounds.

Solved entries:
COc1c(-c2c[nH]c(=O)[nH]c2=O)cc(-c2ccc3cc(NS(C)(=O)=O)ccc3c2)cc1C(C)(C)C [compound 1] : 0.1 to 1 µM
COc1c(-c2ccc3cc(NS(C)(=O)=O)ccc3c2)cc(-c2c[nH]c(=O)[nH]c2=O)cc1-c1cnn(C)c1 [compound 41] : 0.1 to 1 µM
CC(C)(C)c1cc(-c2c[nH]c(=O)[nH]c2=O)cc(-c2ccc3cc(NS(C)(=O)=O)ccc3c2)c1I [compound 34] : < 0.01 µM

--- query ---
Data request, read-out IC50, for COc1c(-c2ccc3cc(NS(C)(=O)=O)ccc3c2)cc(N2CCCS2(=O)=O)cc1C(C)(C)C [compound 46]
0.01 to 0.1 µM

---

Record form. Attribute: pIC50. Fill in for each entry.
target: HCV polymerase 1B (Δ21 NS5B) (Hepatitis C virus genotype 1b, UniProt P26663)
Sequence (P26663 2420-2989, stated change not applied): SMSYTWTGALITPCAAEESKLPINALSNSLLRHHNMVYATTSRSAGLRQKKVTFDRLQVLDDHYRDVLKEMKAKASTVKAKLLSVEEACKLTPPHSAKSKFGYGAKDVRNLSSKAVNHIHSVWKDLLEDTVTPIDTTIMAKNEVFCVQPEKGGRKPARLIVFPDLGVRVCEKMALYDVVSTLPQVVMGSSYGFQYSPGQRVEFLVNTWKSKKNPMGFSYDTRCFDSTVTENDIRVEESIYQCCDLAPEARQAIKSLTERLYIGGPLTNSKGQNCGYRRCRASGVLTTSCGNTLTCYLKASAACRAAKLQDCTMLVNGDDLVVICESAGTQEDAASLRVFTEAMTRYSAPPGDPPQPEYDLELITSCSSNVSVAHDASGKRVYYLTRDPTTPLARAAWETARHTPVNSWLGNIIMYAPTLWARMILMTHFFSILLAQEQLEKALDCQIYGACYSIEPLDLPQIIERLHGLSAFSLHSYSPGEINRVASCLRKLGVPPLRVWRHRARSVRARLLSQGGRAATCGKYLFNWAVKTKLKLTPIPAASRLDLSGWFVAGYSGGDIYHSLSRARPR
pIC50: −log10 of the molar value.

COc1c(/C=C/c2ccc(NS(C)(=O)=O)cc2)cc(-c2c[nH]c(=O)[nH]c2=O)cc1C(F)(F)F [compound 50] : 7.00 to 8.00

For every item below, please supply its pIC50.
1. COc1c(-c2ccc3cc(NS(C)(=O)=O)ccc3c2)cc(NC(N)=O)cc1C(C)(C)C [compound 14]
2. COc1c(-c2ccc3cc(NS(C)(=O)=O)ccc3c2)cc(-c2ccc(F)cc2F)cc1C(C)(C)C [compound 11]
3. COc1c(-c2ccc3cc(NS(C)(=O)=O)ccc3c2)cc(N2CCCS2(=O)=O)cc1C(C)(C)C [compound 46]

["7.00 to 8.00", "< 6.00", "7.00 to 8.00"]

---

Give measured pEC50 for each item. Keep answers brief.
test system: genotype 1b-Con1 subgenomic replicon cell line; assay: HCV Polymerase Replicon Assay (genotype 1b-Con1, luciferase reporter); type: cell-based; conditions: Hepatitis C virus, 72 h, 1b-Con1 replicon, three days
pEC50: −log10 of the molar value.

COc1c(-c2ccc3cc(NS(C)(=O)=O)ccc3c2)cc(N2C(=O)CN=C2O)cc1C(C)(C)C : 7.00 to 8.00
COc1c(-c2ccc3c(c2)CCC3=O)cc(-c2c[nH]c(=O)[nH]c2=O)cc1C(C)(C)C : 6.00 to 7.00

Batch lookup, pEC50 per entry.
1. COc1c(-c2ccc3c(c2)CC=C3CNS(C)(=O)=O)cc(-c2c[nH]c(=O)[nH]c2=O)cc1C(C)(C)C
2. COc1c(-c2ccc3cc(NS(C)(=O)=O)ccc3c2)cc(-c2ccc[nH]c2=O)cc1C(C)(C)C
3. COc1c(-c2ccc3cc(NS(C)(=O)=O)ccc3c2)cc(-c2ccc(=O)[nH]c2)cc1C(C)(C)C

1. ≥ 8.00
2. ≥ 8.00
3. < 6.00

Could I get pEC50 for every one of these entries?
1. COc1c(-c2ccc3cc(NS(C)(=O)=O)ccc3c2)cc(N2CCOC2=O)cc1C(C)(C)C
2. COc1c(-c2ccc3cc(NS(C)(=O)=O)ccc3c2)cc(-c2c[nH]c(=O)[nH]c2=O)cc1-c1ccco1

< 6.00
7.00 to 8.00

---

tested on: genotype 1a-H77 subgenomic replicon cell line; test: HCV Polymerase Replicon Assay (genotype 1a-H77, luciferase reporter); type: cell-based; conditions: Hepatitis C virus, 72 h, 1a-H77 replicon, three days
quantity.name: EC50

COc1c(-c2ccc(/C=N/NS(C)(=O)=O)cc2)cc(N2CCCS2(=O)=O)cc1C(C)(C)C [compound 45] : > 1000 nM
COc1c(-c2ccc3cc(NS(C)(=O)=O)ccc3c2)cc(-c2c[nH]c(=O)[nH]c2=O)cc1C(F)(F)F [compound 49] : 10 to 100 nM
CCc1c(-c2ccc3cc(NS(C)(=O)=O)ccc3c2)cc(-c2c[nH]c(=O)[nH]c2=O)cc1C(C)(C)C [compound 36] : 100 to 1000 nM
COc1c(-c2ccc3cc(NS(C)(=O)=O)ccc3c2)cc(N2CC(=O)NC2=O)cc1C(C)(C)C [compound 16] : 100 to 1000 nM

Consider the following items and state reported EC50 for each.
1. COc1c(-c2ccc3cc(NS(C)(=O)=O)ccc3c2)cc(N2CCCC2=O)cc1C(C)(C)C [compound 29]
2. COc1c(-c2ccc3cc(NS(C)(=O)=O)ccc3c2)cc(N2CCCNC2=O)cc1C(C)(C)C [compound 26]
3. COc1c(Br)cc(-c2c[nH]c(=O)[nH]c2=O)cc1C(F)(F)F [compound 48]

["100 to 1000 nM", "10 to 100 nM", "> 1000 nM"]

---

Entries with reported IC50 on HCV polymerase 1A (Δ21 NS5B) (Hepatitis C virus genotype 1a, UniProt P27958)
Sequence (P27958 2421-2990, stated change not applied): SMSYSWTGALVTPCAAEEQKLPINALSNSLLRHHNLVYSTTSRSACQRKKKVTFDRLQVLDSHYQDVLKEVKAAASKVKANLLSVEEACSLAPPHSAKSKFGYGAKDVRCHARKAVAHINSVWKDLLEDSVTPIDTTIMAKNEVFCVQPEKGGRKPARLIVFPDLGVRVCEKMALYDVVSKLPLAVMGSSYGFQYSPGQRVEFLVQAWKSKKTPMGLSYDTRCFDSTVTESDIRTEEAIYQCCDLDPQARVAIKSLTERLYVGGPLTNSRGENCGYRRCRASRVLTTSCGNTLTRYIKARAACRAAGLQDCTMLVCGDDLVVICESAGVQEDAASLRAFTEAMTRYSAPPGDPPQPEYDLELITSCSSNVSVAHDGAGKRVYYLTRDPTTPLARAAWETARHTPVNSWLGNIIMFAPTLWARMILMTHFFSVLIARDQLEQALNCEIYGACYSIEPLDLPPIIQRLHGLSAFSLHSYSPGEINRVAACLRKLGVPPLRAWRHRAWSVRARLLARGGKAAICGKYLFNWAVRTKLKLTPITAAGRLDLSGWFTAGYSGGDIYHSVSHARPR

Give IC50 for each listed item.
1. COc1c(-c2ccc3c(c2)CCC3=O)cc(-c2c[nH]c(=O)[nH]c2=O)cc1C(C)(C)C
2. COc1c(-c2ccc3cc(NS(C)(=O)=O)ccc3c2)cc(-c2c[nH]c(=O)[nH]c2=O)cc1-c1cccs1

1: 10 to 100 nM; 2: < 10 nM

Give IC50 for all compounds that follow.
1. COc1c(-c2ccc3cc(NS(C)(=O)=O)ccc3c2)cc(-c2cn(C)c(=O)n(C)c2=O)cc1C(C)(C)C
2. COc1c(-c2ccc3cc(NS(C)(=O)=O)ccc3c2)cc(NC(=O)CNC(=O)OC(C)(C)C)cc1C(C)(C)C
3. COc1c(-c2ccc3c(c2)CCC3O)cc(-c2c[nH]c(=O)[nH]c2=O)cc1C(C)(C)C (stereo not shown)
4. COc1c(-c2ccc3cc(NS(C)(=O)=O)ccc3c2)cc(-c2c[nH]c(=O)[nH]c2=O)cc1C(F)(F)F
5. COc1c(/C=C/c2ccc(NS(C)(=O)=O)cc2)cc(C(=O)c2ccccc2)cc1C(C)(C)C
6. C=Cc1c(-c2ccc3cc(NS(C)(=O)=O)ccc3c2)cc(-c2c[nH]c(=O)[nH]c2=O)cc1C(C)(C)C

100 to 1000 nM
> 1000 nM
100 to 1000 nM
< 10 nM
> 1000 nM
< 10 nM

Parameter requested: IC50. Apply to each item below.
1. COc1c(-c2ccc3cc(NS(C)(=O)=O)ccc3c2)cc(N2CC(=O)NC2=O)cc1C(C)(C)C
2. COc1c(-c2ccc(/C=N/NS(C)(=O)=O)cc2)cc(N2CCCS2(=O)=O)cc1C(C)(C)C
3. COc1c(-c2ccc3cc(NS(C)(=O)=O)ccc3c2)cc(NC(=O)CN)cc1C(C)(C)C
4. CCNC(=O)Nc1cc(-c2ccc3cc(NS(C)(=O)=O)ccc3c2)c(OC)c(C(C)(C)C)c1

["10 to 100 nM", "100 to 1000 nM", "> 1000 nM", "100 to 1000 nM"]

---

pIC50: −log10 of the molar value.
Let's go through some recorded pIC50 values for HCV polymerase 1B (Δ21 NS5B) (Hepatitis C virus genotype 1b) together.

COc1c(-c2ccc3cc(NS(C)(=O)=O)ccc3c2)cc(N2CCNC2=O)cc1C(C)(C)C : 7.00 to 8.00

Provide each entry's pIC50 from the list below.
1. COc1c(Br)cc(-c2c[nH]c(=O)[nH]c2=O)cc1C(F)(F)F
2. COc1c(-c2ccc3cc(NS(C)(=O)=O)ccc3c2)cc(-n2ccccc2=O)cc1C(C)(C)C
3. CC(C)(C)c1cc(-c2c[nH]c(=O)[nH]c2=O)cc(-c2ccc3cc(NS(C)(=O)=O)ccc3c2)c1N
4. COc1c(-c2ccc3cc(NS(C)(=O)=O)ccc3c2)cc(-c2cn(C)c(=O)n(C)c2=O)cc1C(C)(C)C
5. COc1c(-c2ccc3cc(NS(C)(=O)=O)ccc3c2)cc(N2CCCC2=O)cc1C(C)(C)C
6. C=Cc1c(-c2ccc3cc(NS(C)(=O)=O)ccc3c2)cc(-c2c[nH]c(=O)[nH]c2=O)cc1C(C)(C)C

1. < 6.00
2. 7.00 to 8.00
3. 7.00 to 8.00
4. 6.00 to 7.00
5. 7.00 to 8.00
6. > 8.00
